Values compiled from the kinase profiling compilation of Christmann-Franck et al. (2016).

# TGT: LRRK2 (human) (UniProt Q5S007)
# Sequence (Q5S007 whole entry, looked up): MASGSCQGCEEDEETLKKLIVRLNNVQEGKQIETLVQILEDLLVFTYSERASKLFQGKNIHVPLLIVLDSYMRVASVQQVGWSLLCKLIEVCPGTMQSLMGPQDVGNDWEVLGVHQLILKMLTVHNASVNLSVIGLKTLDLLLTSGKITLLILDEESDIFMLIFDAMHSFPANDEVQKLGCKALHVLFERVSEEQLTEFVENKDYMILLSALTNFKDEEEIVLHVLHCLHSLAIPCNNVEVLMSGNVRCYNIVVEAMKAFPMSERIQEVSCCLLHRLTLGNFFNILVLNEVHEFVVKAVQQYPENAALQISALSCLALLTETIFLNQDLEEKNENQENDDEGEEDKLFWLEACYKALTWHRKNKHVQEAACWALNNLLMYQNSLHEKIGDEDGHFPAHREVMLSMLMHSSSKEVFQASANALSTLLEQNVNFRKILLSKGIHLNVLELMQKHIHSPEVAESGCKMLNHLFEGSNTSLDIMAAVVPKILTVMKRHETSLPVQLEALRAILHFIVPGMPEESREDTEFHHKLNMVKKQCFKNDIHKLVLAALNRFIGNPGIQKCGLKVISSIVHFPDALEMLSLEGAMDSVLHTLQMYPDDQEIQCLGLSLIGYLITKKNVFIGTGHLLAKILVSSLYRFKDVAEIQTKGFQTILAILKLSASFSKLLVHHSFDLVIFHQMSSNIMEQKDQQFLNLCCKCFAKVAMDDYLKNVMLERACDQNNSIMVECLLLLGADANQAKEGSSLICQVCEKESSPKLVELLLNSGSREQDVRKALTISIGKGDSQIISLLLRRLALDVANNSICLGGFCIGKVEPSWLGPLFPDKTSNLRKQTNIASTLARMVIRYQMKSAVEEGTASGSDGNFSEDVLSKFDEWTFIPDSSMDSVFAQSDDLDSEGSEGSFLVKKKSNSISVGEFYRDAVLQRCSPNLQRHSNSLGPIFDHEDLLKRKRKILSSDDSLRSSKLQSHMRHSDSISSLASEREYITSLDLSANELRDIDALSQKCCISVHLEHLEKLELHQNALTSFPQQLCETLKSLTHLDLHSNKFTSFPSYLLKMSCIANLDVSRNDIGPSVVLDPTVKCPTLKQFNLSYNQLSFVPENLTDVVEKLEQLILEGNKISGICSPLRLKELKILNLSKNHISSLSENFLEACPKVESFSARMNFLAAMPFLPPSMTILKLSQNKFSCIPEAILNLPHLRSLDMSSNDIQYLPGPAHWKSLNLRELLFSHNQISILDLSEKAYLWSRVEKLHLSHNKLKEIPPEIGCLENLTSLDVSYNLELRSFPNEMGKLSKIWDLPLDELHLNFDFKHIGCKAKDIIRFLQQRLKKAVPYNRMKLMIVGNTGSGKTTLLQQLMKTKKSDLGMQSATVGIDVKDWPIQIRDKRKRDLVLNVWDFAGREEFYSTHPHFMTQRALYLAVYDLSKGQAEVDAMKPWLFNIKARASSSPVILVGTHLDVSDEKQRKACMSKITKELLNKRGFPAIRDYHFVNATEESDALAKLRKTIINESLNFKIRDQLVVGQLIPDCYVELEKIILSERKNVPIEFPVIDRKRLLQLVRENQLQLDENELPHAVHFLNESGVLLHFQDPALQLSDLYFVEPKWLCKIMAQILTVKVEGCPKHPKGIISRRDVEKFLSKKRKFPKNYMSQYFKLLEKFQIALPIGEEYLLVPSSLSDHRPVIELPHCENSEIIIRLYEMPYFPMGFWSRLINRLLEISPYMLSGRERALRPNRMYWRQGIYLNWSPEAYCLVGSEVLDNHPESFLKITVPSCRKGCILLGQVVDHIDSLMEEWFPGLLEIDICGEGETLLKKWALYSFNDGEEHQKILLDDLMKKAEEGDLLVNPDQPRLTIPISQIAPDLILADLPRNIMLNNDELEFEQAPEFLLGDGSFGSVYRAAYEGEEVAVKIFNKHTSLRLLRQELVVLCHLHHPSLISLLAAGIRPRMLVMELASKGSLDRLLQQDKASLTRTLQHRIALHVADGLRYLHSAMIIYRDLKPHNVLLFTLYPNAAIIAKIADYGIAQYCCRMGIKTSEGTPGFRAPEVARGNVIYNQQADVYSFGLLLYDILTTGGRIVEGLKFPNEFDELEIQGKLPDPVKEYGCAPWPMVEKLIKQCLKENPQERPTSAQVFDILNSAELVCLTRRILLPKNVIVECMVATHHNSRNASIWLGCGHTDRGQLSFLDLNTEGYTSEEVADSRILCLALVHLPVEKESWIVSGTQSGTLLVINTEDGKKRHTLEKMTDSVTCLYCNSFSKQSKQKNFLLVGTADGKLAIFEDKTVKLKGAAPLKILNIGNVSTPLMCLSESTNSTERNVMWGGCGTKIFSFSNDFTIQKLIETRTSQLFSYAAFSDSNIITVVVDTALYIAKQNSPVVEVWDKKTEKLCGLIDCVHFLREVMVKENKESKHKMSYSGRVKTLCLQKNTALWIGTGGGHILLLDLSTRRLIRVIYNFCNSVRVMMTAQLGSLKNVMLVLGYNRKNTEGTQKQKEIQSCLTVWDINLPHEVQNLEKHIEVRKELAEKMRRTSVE
# ASSAY NAME: radiometric filter-binding kinase assay, Kinase HotSpot
# CONDITION: compound 0.5 µM; ATP 10 µM
Parameter: residual activity. Scope: all listed entries.

>  <STRUCTURE SMILES STRING>
N#CC(C#N)=C(N)/C(C#N)=C/c1ccc(O)cc1

>  <residual activity (%)>
97.1

$$$$
>  <STRUCTURE SMILES STRING>
Cc1[nH]c(/C=C2\C(=O)Nc3ccc(S(=O)(=O)N(C)c4cccc(Cl)c4)cc32)c(C)c1C(=O)N1CCN(C)CC1

>  <residual activity (%)>
6.63

$$$$
>  <STRUCTURE SMILES STRING>
Cc1ccc(S(=O)(=O)/C=C/C#N)cc1

>  <residual activity (%)>
115

$$$$

====

# TGT: DMPK (human) (UniProt Q09013)
# Sequence (Q09013 whole entry, looked up): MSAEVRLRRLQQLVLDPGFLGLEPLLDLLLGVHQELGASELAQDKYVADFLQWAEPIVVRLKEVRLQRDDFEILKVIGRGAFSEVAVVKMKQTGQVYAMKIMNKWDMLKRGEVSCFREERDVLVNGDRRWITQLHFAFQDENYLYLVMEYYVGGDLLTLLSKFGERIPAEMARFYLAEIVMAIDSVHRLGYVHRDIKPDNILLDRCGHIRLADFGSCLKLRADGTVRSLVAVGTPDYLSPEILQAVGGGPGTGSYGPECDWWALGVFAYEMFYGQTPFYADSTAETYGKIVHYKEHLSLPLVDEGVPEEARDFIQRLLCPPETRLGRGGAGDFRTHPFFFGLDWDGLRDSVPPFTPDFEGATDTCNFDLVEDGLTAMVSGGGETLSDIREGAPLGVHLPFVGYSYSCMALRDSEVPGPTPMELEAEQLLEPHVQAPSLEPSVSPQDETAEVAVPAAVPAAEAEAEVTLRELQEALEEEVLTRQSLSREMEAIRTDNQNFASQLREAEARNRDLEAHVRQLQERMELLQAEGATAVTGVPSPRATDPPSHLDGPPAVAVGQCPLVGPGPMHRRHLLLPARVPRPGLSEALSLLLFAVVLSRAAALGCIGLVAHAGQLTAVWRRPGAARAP
# ASSAY NAME: radiometric filter-binding kinase assay, Kinase HotSpot
# CONDITION: compound 0.5 µM; ATP 10 µM
EXPERIMENTAL READOUT: residual activity (%)

>  <COMPOUND>
CC(C)N(CCC(=O)c1ccc2ccccc2c1)Cc1ccccc1

>  <REPORTED MEASUREMENT>
108

$$$$
>  <COMPOUND>
Nc1ncnc2[nH]nc(Nc3ccc(F)cc3)c12

>  <REPORTED MEASUREMENT>
114

$$$$
>  <COMPOUND>
CCC(=O)Nc1ccc2ncnc(Nc3cccc(Br)c3)c2c1

>  <REPORTED MEASUREMENT>
92

$$$$
>  <COMPOUND>
O=C1NC(=O)C(c2cn(CCCn3ccnc3)c3ccccc23)=C1Nc1ccccc1

>  <REPORTED MEASUREMENT>
104

$$$$
>  <COMPOUND>
N#CC(C#N)=C(N)/C(C#N)=C/c1ccc(O)cc1

>  <REPORTED MEASUREMENT>
101

$$$$
>  <COMPOUND>
N#C/C(=C(/N)Sc1ccc(N)cc1)c1ccccc1C(F)(F)F

>  <REPORTED MEASUREMENT>
102

$$$$
>  <COMPOUND>
Cc1[nH]c(/C=C2\C(=O)Nc3ccc(S(=O)(=O)N(C)c4cccc(Cl)c4)cc32)c(C)c1C(=O)N1CCN(C)CC1

>  <REPORTED MEASUREMENT>
113

$$$$
>  <COMPOUND>
COc1cc2ncnc(Nc3cccc(Cl)c3)c2cc1OC

>  <REPORTED MEASUREMENT>
102

$$$$
>  <COMPOUND>
CCN(CC)CCNC(=O)c1c(C)[nH]c(/C=C2\C(=O)Nc3ccc(F)cc32)c1C

>  <REPORTED MEASUREMENT>
97.7

$$$$
>  <COMPOUND>
CCOC(=O)c1c(C)[nH]c(/C=C2\C(=O)Nc3ccccc32)c1C

>  <REPORTED MEASUREMENT>
101

$$$$
>  <COMPOUND>
O=C1NC(=O)c2c1c1c3ccccc3n3c1c1c2c2ccccc2n1C1CCC3O1

>  <REPORTED MEASUREMENT>
98.8

$$$$
>  <COMPOUND>
COc1ccc(COc2ccc(Cc3cnc(N)nc3N)cc2OC)cc1

>  <REPORTED MEASUREMENT>
101

$$$$
>  <COMPOUND>
Nc1ccc2ncnc(NCCc3ccc(Oc4ccccc4)cc3)c2c1

>  <REPORTED MEASUREMENT>
94.2

$$$$
>  <COMPOUND>
CC[n+]1c(/C=C/N(C)c2ccccc2)n(-c2ccccc2)c2ccc(-c3nc4ccccc4s3)cc21

>  <REPORTED MEASUREMENT>
93.9

$$$$
>  <COMPOUND>
CCCC(=O)Oc1ccc2[nH]c(C(=O)c3cc4ccccc4[nH]3)cc2c1

>  <REPORTED MEASUREMENT>
94.4

$$$$
>  <COMPOUND>
O=C1NC(=O)/C(=C/c2ccc3c(c2)OC(F)(F)O3)S1

>  <REPORTED MEASUREMENT>
97.5

$$$$
>  <COMPOUND>
CNc1cc2c(Nc3cccc(Br)c3)ncnc2cn1

>  <REPORTED MEASUREMENT>
112

$$$$
>  <COMPOUND>
CO[C@H]1CC2CC[C@@H](C)[C@@](O)(O2)C(=O)C(=O)N2CCCC[C@H]2C(=O)OC([C@H](C)C[C@@H]2CC[C@@H](O)[C@H](OC)C2)CC(=O)[C@H](C)/C=C(\C)[C@@H](O)[C@@H](OC)C(=O)[C@H](C)C[C@H](C)/C=C/C=C/C=C/1C (some centres not stated)

>  <REPORTED MEASUREMENT>
109

$$$$
>  <COMPOUND>
Cc1ccc(Nc2nccc(N(C)c3ccc4c(C)n(C)nc4c3)n2)cc1S(N)(=O)=O

>  <REPORTED MEASUREMENT>
93.5

$$$$
>  <COMPOUND>
c1ccc(-c2n[nH]cc2-c2ccnc3ccccc23)nc1

>  <REPORTED MEASUREMENT>
106

$$$$
>  <COMPOUND>
CC(=O)c1ccc(N2CCOCC2)cc1O

>  <REPORTED MEASUREMENT>
105

$$$$
>  <COMPOUND>
CNC(=O)c1cc(Oc2ccc(NC(=O)Nc3ccc(Cl)c(C(F)(F)F)c3)cc2)ccn1

>  <REPORTED MEASUREMENT>
93.2

$$$$
>  <COMPOUND>
Oc1cccc(-c2nc(N3CCOCC3)c3oc4ncccc4c3n2)c1

>  <REPORTED MEASUREMENT>
99.5

$$$$
>  <COMPOUND>
COc1ccc2c(c[n+](C)c3c4cc5c(cc4ccc23)OCO5)c1OC

>  <REPORTED MEASUREMENT>
100

$$$$
>  <COMPOUND>
CCN(CC)C(=O)c1ccc(Nc2nc(OCC3CCCCC3)c3nc[nH]c3n2)cc1

>  <REPORTED MEASUREMENT>
105

$$$$
>  <COMPOUND>
c1ccc(-c2n[nH]c3c2oc2ccccc23)cc1

>  <REPORTED MEASUREMENT>
99.5

$$$$
>  <COMPOUND>
Cc1ccc(NC2=CC(=O)c3sc(C)nc3C2=O)cc1

>  <REPORTED MEASUREMENT>
103

$$$$
